Reference for the values: PubChem BioAssay (NCI)

Assign growth to each entry below.
- System: HCC-2998 colon
- experimental protocol: NCI-60 one-dose screen, 48 h (100 = growth as untreated, 0 = no growth, -100 = all killed)
- experimental parameters: 10 µM
Compounds without any hit were thinned out: in the full panel of roughly 83,000, 20% have a hit. The source made the active and inactive calls. The calls were made as follows: active = growth percent below 10; inactive = the rest.

Data request, read-out growth, for Cc1ccc(F)cc1N/C=c1\s/c(=C(\C#N)C(=O)Nc2ccccc2)n(-c2ccccc2)c1=O 92.1% (inactive)

I have this compound here, O=C(CNc1nc(-c2ccccc2)cs1)Nc1cccc(Cl)c1 , and I need its recorded growth. 33.2% (inactive)

What growth value was documented for this compound, N#Cc1ccc(-c2nn(-c3ccc(C(=O)O)cc3)cc2CNc2cccc(Br)c2)cc1 ? 4.19% (active)

Item under review: CCCCCc1ccc(S(=O)(=O)N(C(C)=O)c2cc(-c3csc(N(C)C(C)=O)n3)ccc2N2CCN(C)CC2)cc1 . Reported growth? -67.8% (active)

Which growth is reported for this compound? CCOC(=O)C1=C(N)N(c2ccc(C)cc2)C2=C(C(=O)CC(C)(C)C2)C1c1ccccc1OC (stereo not given) 106% (inactive)

Any idea what growth was measured for CN1CCCN(Cc2ccc(C(=O)Nc3cccc(Nc4ccc5cc(O)ccc5n4)c3)cc2C(F)(F)F)CC1 ? -15.1% (active)

Consider the compound CN1CCN(c2ccc(C(=O)/C=C/c3ccc(C#N)cc3)cc2)CC1 and give its measured growth. 47% (inactive)

Record request: growth value, item COc1ccc2[nH]cc(/C=N/Nc3ccc(Br)cn3)c2c1 10.2% (inactive)

State the recorded growth for this entry: O=c1oc2ccc(-c3ccc(F)cc3F)cc2c(=O)n1-c1ccc(F)cc1 7.52% (active)

growth for COc1cccc(C(N)=Nc2ccc(OCCCCCCn3cncn3)cc2)c1 ? 18.5% (inactive)

Quick check: growth of CN1CCN(c2ccc(Nc3nc(NCCCNC(=O)c4ccc(Cl)cc4)c4sccc4n3)cc2)CC1 ? 91.3% (inactive)

Param item = C=C[C@H]1[C@H](O[C@@H]2OC(CO)[C@@H](O)[C@H](O)C2OC(=O)c2c(O)cc(O)cc2-c2cccc(O)c2)OC=C2C(=O)OCC[C@H]21 (stereo not given in full) ; retrieve measured growth. 106% (inactive)

I would be grateful if you could share the reported growth for O=C1Nc2ccc(Cl)cc2/C1=C/c1ccc(OCc2ccc(Br)cc2F)cc1 . 77.5% (inactive)

Value lookup for growth; key = CC(=C(c1ccc(OCCCN(C)C)cc1)c1ccc(OCCCN(C)C)cc1)c1ccccc1 -94.8% (active)

Any idea what its growth is? The compound is CN1C(=O)N(C)C2SC(N/N=C/c3ccc(F)cc3)=NC21 (stereo not given) 69.8% (inactive)

Record request: growth value, item CCOC(=O)c1sc(N/N=C(\C)c2ccc3c(c2)Nc2ccccc2S3)nc1C 3.51% (active)

# input compound: COc1ccc(CN2[C@@H](C(=O)NCc3ccc(C(=O)NO)cc3)Cc3c([nH]c4ccccc34)[C@@H]2C2CC2)cc1 ; wanted: its growth 25.1% (inactive)

Give the measured growth of CC1(C)[C@@H](NCO)CC[C@]2(C)[C@H]3C(=O)C=C4[C@@H]5C[C@](C)(CO)CC[C@]5(C)CC[C@@]4(C)[C@]3(C)CC[C@@H]12 . 40.8% (inactive)

Any idea what growth was measured for CCOC(=O)C1NN(c2ccc(S(N)(=O)=O)cc2)c2nc3nc(-c4cccs4)cc(-c4cccs4)c3c(=O)n21 (stereo not given) ? 107% (inactive)

What does the data say about its growth? Entry: O=C(Cn1cc(CSc2nnc3oc4ccccc4n23)nn1)Nc1ccc(Br)cc1 96.4% (inactive)

Fill in: growth of COC[C@@H](CC(C)C)N=C1N/C(=C\c2ccc3ncsc3c2)C(=O)N1C is ___ 5.06% (active)

Entry under review: O=C(CSc1nnc(-c2ccc3nc(-c4ccc(Cl)cc4)[nH]c3c2)o1)Nc1ccc(Cl)cc1 . Reported growth? 18.5% (inactive)

Which growth reading was recorded for the compound O=c1c2ccccc2nc(COc2ccccc2)n1/N=C/c1ccc(N2CCOCC2)cc1 ? 99.2% (inactive)

Which value of growth has been reported for O=C(CSc1nnc(-c2c[nH]c3ccccc23)n1-c1ccccc1)c1ccc(Cl)cc1 in the records? 78.1% (inactive)

Quick one: growth of C=CC(=O)Nc1ccc(C(=O)/C=C/c2ccc(N(C)CCF)cc2)c(O)c1 ? -78.4% (active)

Find the recorded growth belonging to O=C(c1ccc(Cl)cc1)C1[C@H](c2ccccc2Br)[C@@H](c2ccccc2)NC12C(=O)Nc1ccc(Br)cc12 (stereo not given in full) and report it. -13.2% (active)

Recorded growth of N#C/C(=C\c1ccc(N(c2ccccc2)c2ccccc2)cc1)C(N)=O , please. 73.7% (inactive)

Data request, read-out growth, for COc1ccc(N2N=C(c3ccc4c(c3)OCCO4)CC2c2cccc(NC(=O)CCCNS(=O)(=O)c3ccc(F)cc3)c2)cc1 (stereo not given) 77.1% (inactive)

Form field: reported growth of CCOC(=O)C1=C(N)N(c2ccccc2)C2=C(C(=O)CC(C)(C)C2)C1c1ccccc1OC (stereo not given) 101% (inactive)

Consider the compound Cc1cccc(-c2nc(Nc3ccccc3C(=O)O)c3ccccc3n2)c1 and give its measured growth. 27.1% (inactive)

Quick one: growth for COc1ccc(C(=O)Nc2sc3c(c2C#N)CCC(=O)C3)cc1C(F)(F)F ? 6.84% (active)

For Cc1nc2c(cnn2-c2ccccc2)c(=O)n1-c1ccc(NC(=O)c2ccc(F)cc2)cc1 , what is its reported growth? 79.9% (inactive)

Fill in the blank: the reported growth of COc1ccc2nc(Cl)c(-c3cc(-c4ccccc4)nc(N)n3)cc2c1 is ____. 62.6% (inactive)

# query: growth of entry Cc1ccc(-c2ccc(SCC(=O)Nc3ccc(S(N)(=O)=O)cc3Br)nn2)cc1 39.4% (inactive)

I am curious: what growth value has been reported for Cc1ccc(-c2nc3ccc(C(=O)N=Nc4c(O)[nH]c5ccc(Cl)cc45)cc3[nH]2)cc1 ? -66.8% (active)
